Reported % DAMGO (0.1 μM) values for a set of molecules
tested on: mu opiate receptor (MOR); assay: MOR agonist activity using [35S]GTPγS binding assay in striatal membranes; format: biochemical; settings: 0.1 μM compound relative to DAMGO
reported-endpoint: % DAMGO (0.1 μM) (%)

| molecule | numeric-readout |
| --- | --- |
| Cc1ccc(C(C)C)c(OCC(O)CN2CC(C)OC(C)C2)c1 (stereo not shown) | 81.3 |
| CC1CCC(C(C)C)C(OCC(O)CN2CC(C)OC(C)C2)C1 (stereo not shown) [Compound A0032-1] | 95.5 |
| CC1CN(CC(O)COc2cc(F)cc(F)c2)CC(C)O1 (stereo not shown) | 131.2 |
| CC1CCC(C(C)C)C(OCC(O)CN2CCCC2=O)C1 (stereo not shown) | 61.5 |
| OC(COc1ccc(Br)c(F)c1)CN1CCSCC1 (stereo not shown) | 63.5 |
| CC1CCC(C(C)C)C(OCC(O)CN2CCOCC2)C1 (stereo not shown) | 55.2 |
| CC1CCC(C(C)C)C(OCC(CN2CC(C)OC(C)C2)NCc2ccccc2)C1 (stereo not shown) | 79.4 |
| CC1CCCC(OCC(O)CN2CC(C)OC(C)C2)C1 (stereo not shown) | 79.8 |
| COc1ccc(N2CCN(CC(O)COC3CC(C)CCC3C(C)C)CC2)c(OC)c1 (stereo not shown) | 99.9 |
| CC1CCC(C(C)C)C(OCC(O)Cn2ccc3ccccc32)C1 (stereo not shown) | 124.9 |
| CC1CCC(C(C)C)C(OCC(O)CN2CCCCC2C)C1 (stereo not shown) | 68.3 |
| CC1CCC(C(C)C)C(OCC(O)CN2CCCN(C)CC2)C1 (stereo not shown) | 161.9 |
| CC1CCC(C(C)C)C(OCC(O)CN2CCc3ccccc32)C1 (stereo not shown) | 126.6 |
| CC1CCC(C(C)C)C(OCC(O)CN2CCN(C)CC2)C1 (stereo not shown) | 39.8 |
| CC1CCC(C(C)C)C(OCC(O)CN2CCCCCC2)C1 (stereo not shown) | 57.8 |
| CC1CCC(C(C)C)C(OCC(O)CN2CCN(CCN3CCCCC3)CC2)C1 (stereo not shown) | 100.9 |

---

target: FLNA pentapeptide of SEQ ID NO: 1 (Bn-VAKGL) (Homo sapiens); assay: FITC-NLX-based FLNA screening assay (inhibition of FITC-naloxone binding to Bn-VAKGL on streptavidin plates); conditions: FLNA-binding compound 1 μM; 10 nM FITC-NLX; read-out: Percent Binding Inhibition

| molecule | inhibition at 1 µM |
| --- | --- |
| CCN1CCC2(CC1)OCCN2S(=O)(=O)c1ccc(OC)cc1 [Compound C0089M] | 51.2% |
| COc1ccc(S(=O)(=O)N2CCC3(CC2)NCCO3)cc1 | 49% |
| COc1ccc(OCC(O)Cn2ccc3ccccc32)cc1 (stereo not drawn) | 49.4% |
| CC1CN(CC(O)COc2ccccc2C(C)C)CC(C)O1 (stereo not drawn) | 50.8% |
| CC1CCC(C(C)C)C(OCC(O)CN2CCOCC2)C1 (stereo not drawn) | 47.6% |
| CC1CCC(C(C)C)C(OCC(O)CN2CCN(CCN3CCCCC3)CC2)C1 (stereo not drawn) | 52.9% |
| O=C1CNC2(CCN(CC3CC3)CC2)N1 [Compound C0123M] | 62.9% |
| COc1ccc(S(=O)(=O)N2CCC3(CC2)OCCN3S(=O)(=O)c2ccc(OC)cc2)cc1 | 53.4% |
| O=C1CNC2(CCN(CC3CC3)CC2)N1Cc1ccccc1 [Compound C0124M] | 58.7% |
| O=[N+]([O-])c1ccc(S(=O)(=O)N2CCC3(CC2)NCCS3)cc1 | 50.6% |
| CC1CN(CC(O)COc2cc(F)cc(F)c2)CC(C)O1 (stereo not drawn) | 40.9% |
| COc1cc(S(=O)(=O)N2CCC3(CC2)OCCN3S(=O)(=O)c2cc(OC)c(OC)c(OC)c2)cc(OC)c1OC | 48% |
| O=S(=O)(c1ccc(Cl)cc1)N1CCC2(CC1)OCCN2S(=O)(=O)c1ccc(Cl)cc1 | 45% |
| CC1CCC(C(C)C)C(OCC(O)CN2CCSC2)C1 (stereo not drawn) | 49.9% |
| COc1ccc(S(=O)(=O)N2CCOC23CCN(C(=O)OC(C)(C)C)CC3)cc1 | 58% |
| O=S(=O)(c1ccc(Br)cc1Br)N1CCC2(CC1)OCCN2S(=O)(=O)c1ccc(Br)cc1Br | 53.6% |
| CC(=O)N1CCSC12CCN(S(=O)(=O)c1ccc([N+](=O)[O-])cc1)CC2 | 36.4% |
| CC(=O)c1ccc(S(=O)(=O)N2CCC3(CC2)NCCS3)cc1 | 68% |
| O=[N+]([O-])c1ccc(S(=O)(=O)N2CCC3(CC2)NCCCO3)cc1 | 53.7% |
| CCCCN1CCC2(CC1)OCCN2S(=O)(=O)c1ccc(C(C)=O)cc1 [Compound C0101M] | 59% |
| COc1ccc(S(=O)(=O)N2CCSC23CCNCC3)cc1 | 53.6% |
